# credit: ChEMBL document CHEMBL1821678

Here, each record is paired with measured IC50 data.
Test: Antioxidant activity assessed as potassium ferricyanide ion reducing power after 20 mins by spectrophotometry
Format: functional
Give the value in µg/mL but do not write µg/mL after it.

Example entries begin here.
- line.notation: "O=[N+]([O-])c1cccc(NC(P(=O)(Oc2ccccc2)Oc2ccccc2)P(=O)(Oc2ccccc2)Oc2ccccc2)c1"
  endpoint.result: 2.09
- line.notation: "O=P(Oc1ccccc1)(Oc1ccccc1)C(Nc1ccc(F)c(Cl)c1)P(=O)(Oc1ccccc1)Oc1ccccc1"
  endpoint.result: 2.14

Turning to the following compound.
Query :: Consider the compound O=P(Oc1ccccc1)(Oc1ccccc1)C(Nc1ccc(F)cc1)P(=O)(Oc1ccccc1)Oc1ccccc1 and give its recorded IC50.
Result :: 2.86

---

Assay: Antioxidant activity assessed as potassium ferricyanide ion reducing power after 20 mins by spectrophotometry
Assay type: functional
Could you mark each record met if its IC50 falls strictly under 3 µg/mL, and not met if it equals or exceeds it?

Reference set, count: 5
- line.notation: "O=P(Oc1ccccc1)(Oc1ccccc1)C(Nc1cccc2ncsc12)P(=O)(Oc1ccccc1)Oc1ccccc1"
  label.value: "met"
- line.notation: "O=[N+]([O-])c1cc(NC(P(=O)(Oc2ccccc2)Oc2ccccc2)P(=O)(Oc2ccccc2)Oc2ccccc2)ccc1F"
  label.value: "met"
- line.notation: "O=[N+]([O-])c1ncc(NC(P(=O)(Oc2ccccc2)Oc2ccccc2)P(=O)(Oc2ccccc2)Oc2ccccc2)s1"
  label.value: "not met"
- line.notation: "O=C1O[C@H]([C@@H](O)CO)C(O)=C1O"
  label.value: "met"
- line.notation: "O=P(Oc1ccccc1)(Oc1ccccc1)C(Nc1ccc(Cl)cc1)P(=O)(Oc1ccccc1)Oc1ccccc1"
  label.value: "met"

Query :: is_below(IC50, 3 µg/mL) for COc1ccc(NC(P(=O)(Oc2ccccc2)Oc2ccccc2)P(=O)(Oc2ccccc2)Oc2ccccc2)cc1 ?
Result :: met

Query :: is_below(IC50, 3 µg/mL) for O=P(Oc1ccccc1)(Oc1ccccc1)C(Nc1ccccc1)P(=O)(Oc1ccccc1)Oc1ccccc1 ?
Result :: not met

---

Tested on: Osteoclast
Assay: In-vitro antibone resorptive activity Sprague-Dawley rat pup long bone osteoclasts assessed as compound concentration causing inhibition of bone resorption after 72 hrs by MTT assay
Type: functional
Here, each record is paired with measured inhibitory concentration data.
Give the value in µM but do not write µM after it.

Example entries begin here.
- line.notation: "O=P(Oc1ccccc1)(Oc1ccccc1)C(Nc1ccccc1)P(=O)(Oc1ccccc1)Oc1ccccc1"
  result.unit: "µM"
  inhibitory concentration: 104.4
- line.notation: "O=P(Oc1ccccc1)(Oc1ccccc1)C(Nc1ccc(F)cc1)P(=O)(Oc1ccccc1)Oc1ccccc1"
  result.unit: "µM"
  inhibitory concentration: 56.4
- line.notation: "O=[N+]([O-])c1cccc(NC(P(=O)(Oc2ccccc2)Oc2ccccc2)P(=O)(Oc2ccccc2)Oc2ccccc2)c1"
  result.unit: "µM"
  inhibitory concentration: 14.6
- line.notation: "Cc1ncc(NC(P(=O)(Oc2ccccc2)Oc2ccccc2)P(=O)(Oc2ccccc2)Oc2ccccc2)s1"
  result.unit: "µM"
  inhibitory concentration: 48.8
- line.notation: "NCCCC(O)(P(=O)(O)O)P(=O)(O)O"
  result.unit: "µM"
  inhibitory concentration: 20.4

Query :: Consider the compound O=P(Oc1ccccc1)(Oc1ccccc1)C(Nc1ccc(Cl)cc1)P(=O)(Oc1ccccc1)Oc1ccccc1 and give its recorded inhibitory concentration.
Result :: 71.8

Query :: Consider the compound COc1ccc(NC(P(=O)(Oc2ccccc2)Oc2ccccc2)P(=O)(Oc2ccccc2)Oc2ccccc2)cc1 and give its recorded inhibitory concentration.
Result :: 67.7

Query :: Consider the compound O=P(Oc1ccccc1)(Oc1ccccc1)C(Nc1ccc(F)c(Cl)c1)P(=O)(Oc1ccccc1)Oc1ccccc1 and give its recorded inhibitory concentration.
Result :: 10.4

Query :: Consider the compound O=[N+]([O-])c1cc(NC(P(=O)(Oc2ccccc2)Oc2ccccc2)P(=O)(Oc2ccccc2)Oc2ccccc2)ccc1F and give its recorded inhibitory concentration.
Result :: 8.1

Query :: Consider the compound O=[N+]([O-])c1ncc(NC(P(=O)(Oc2ccccc2)Oc2ccccc2)P(=O)(Oc2ccccc2)Oc2ccccc2)s1 and give its recorded inhibitory concentration.
Result :: 51.6

Query :: Consider the compound O=P(Oc1ccccc1)(Oc1ccccc1)C(Nc1cccc2ncsc12)P(=O)(Oc1ccccc1)Oc1ccccc1 and give its recorded inhibitory concentration.
Result :: 54.5

---

System: Radical scavenging activity
Experiment: Antioxidant activity assessed as DPPH free radical scavenging activity after 30 mins
Format: functional
Records here are stratified by IC50; strata: class A = under 40 µg/mL, class B = from 40 µg/mL up to 50 µg/mL, class C = 50 µg/mL and over

Query :: Class label required: O=[N+]([O-])c1cc(NC(P(=O)(Oc2ccccc2)Oc2ccccc2)P(=O)(Oc2ccccc2)Oc2ccccc2)ccc1F
Result :: class A

Query :: Class label required: O=C1O[C@H]([C@@H](O)CO)C(O)=C1O
Result :: class A

Query :: Class label required: O=P(Oc1ccccc1)(Oc1ccccc1)C(Nc1ccc(F)cc1)P(=O)(Oc1ccccc1)Oc1ccccc1
Result :: class B

Query :: Class label required: Cc1ncc(NC(P(=O)(Oc2ccccc2)Oc2ccccc2)P(=O)(Oc2ccccc2)Oc2ccccc2)s1
Result :: class C

Query :: Class label required: O=P(Oc1ccccc1)(Oc1ccccc1)C(Nc1ccc(Cl)cc1)P(=O)(Oc1ccccc1)Oc1ccccc1
Result :: class B

---

Here, each record is paired with measured IC50 data.
Tested on: Liver
Assay: Antioxidant activity in rat liver cells assessed as inhibition of Fe(2+)-asocrbate complex system-induced lipid peroxidation by TBARS assay
Format: functional, cell-based
Give the value in µg/mL but do not write µg/mL after it.

Example entries begin here.
- line.notation: "O=P(Oc1ccccc1)(Oc1ccccc1)C(Nc1ccc(F)cc1)P(=O)(Oc1ccccc1)Oc1ccccc1"
  result.unit: "µg/mL"
  endpoint.result: 86.2
- line.notation: "O=[N+]([O-])c1cccc(NC(P(=O)(Oc2ccccc2)Oc2ccccc2)P(=O)(Oc2ccccc2)Oc2ccccc2)c1"
  result.unit: "µg/mL"
  endpoint.result: 85.7
- line.notation: "O=P(Oc1ccccc1)(Oc1ccccc1)C(Nc1ccccc1)P(=O)(Oc1ccccc1)Oc1ccccc1"
  result.unit: "µg/mL"
  endpoint.result: 96
- line.notation: "O=P(Oc1ccccc1)(Oc1ccccc1)C(Nc1cccc2ncsc12)P(=O)(Oc1ccccc1)Oc1ccccc1"
  result.unit: "µg/mL"
  endpoint.result: 84.9
- line.notation: "O=P(Oc1ccccc1)(Oc1ccccc1)C(Nc1ccc(Cl)cc1)P(=O)(Oc1ccccc1)Oc1ccccc1"
  result.unit: "µg/mL"
  endpoint.result: 87.5

Query :: Report IC50 under test system Liver for O=C1O[C@H]([C@@H](O)CO)C(O)=C1O .
Result :: 75.2

Query :: Report IC50 under test system Liver for O=[N+]([O-])c1ncc(NC(P(=O)(Oc2ccccc2)Oc2ccccc2)P(=O)(Oc2ccccc2)Oc2ccccc2)s1 .
Result :: 97.9

Query :: Report IC50 under test system Liver for COc1ccc(NC(P(=O)(Oc2ccccc2)Oc2ccccc2)P(=O)(Oc2ccccc2)Oc2ccccc2)cc1 .
Result :: 89.8

Query :: Report IC50 under test system Liver for O=[N+]([O-])c1cc(NC(P(=O)(Oc2ccccc2)Oc2ccccc2)P(=O)(Oc2ccccc2)Oc2ccccc2)ccc1F .
Result :: 78.5

Query :: Report IC50 under test system Liver for O=P(Oc1ccccc1)(Oc1ccccc1)C(Nc1ccc(F)c(Cl)c1)P(=O)(Oc1ccccc1)Oc1ccccc1 .
Result :: 80.6

Query :: Report IC50 under test system Liver for Cc1ncc(NC(P(=O)(Oc2ccccc2)Oc2ccccc2)P(=O)(Oc2ccccc2)Oc2ccccc2)s1 .
Result :: 75.2

---

System: Radical scavenging activity
Experiment: Antioxidant activity assessed as DPPH free radical scavenging activity after 30 mins
Type: functional
Could you mark each record condition met if its IC50 falls strictly under 50 µg/mL, and condition not met if it equals or exceeds it?

Reference set, count: 4
- line.notation: "O=[N+]([O-])c1cccc(NC(P(=O)(Oc2ccccc2)Oc2ccccc2)P(=O)(Oc2ccccc2)Oc2ccccc2)c1"
  label.value: "condition met"
- line.notation: "COc1ccc(NC(P(=O)(Oc2ccccc2)Oc2ccccc2)P(=O)(Oc2ccccc2)Oc2ccccc2)cc1"
  label.value: "condition met"
- line.notation: "O=P(Oc1ccccc1)(Oc1ccccc1)C(Nc1cccc2ncsc12)P(=O)(Oc1ccccc1)Oc1ccccc1"
  label.value: "condition met"
- line.notation: "O=P(Oc1ccccc1)(Oc1ccccc1)C(Nc1ccccc1)P(=O)(Oc1ccccc1)Oc1ccccc1"
  label.value: "condition not met"

Query :: is_below(IC50, 50 µg/mL) for O=P(Oc1ccccc1)(Oc1ccccc1)C(Nc1ccc(F)c(Cl)c1)P(=O)(Oc1ccccc1)Oc1ccccc1 ?
Result :: condition met
